- Target or test system: Transient receptor potential cation channel subfamily V member 1 (Homo sapiens, UniProt Q8NER1)
- Sequence (Q8NER1 whole entry): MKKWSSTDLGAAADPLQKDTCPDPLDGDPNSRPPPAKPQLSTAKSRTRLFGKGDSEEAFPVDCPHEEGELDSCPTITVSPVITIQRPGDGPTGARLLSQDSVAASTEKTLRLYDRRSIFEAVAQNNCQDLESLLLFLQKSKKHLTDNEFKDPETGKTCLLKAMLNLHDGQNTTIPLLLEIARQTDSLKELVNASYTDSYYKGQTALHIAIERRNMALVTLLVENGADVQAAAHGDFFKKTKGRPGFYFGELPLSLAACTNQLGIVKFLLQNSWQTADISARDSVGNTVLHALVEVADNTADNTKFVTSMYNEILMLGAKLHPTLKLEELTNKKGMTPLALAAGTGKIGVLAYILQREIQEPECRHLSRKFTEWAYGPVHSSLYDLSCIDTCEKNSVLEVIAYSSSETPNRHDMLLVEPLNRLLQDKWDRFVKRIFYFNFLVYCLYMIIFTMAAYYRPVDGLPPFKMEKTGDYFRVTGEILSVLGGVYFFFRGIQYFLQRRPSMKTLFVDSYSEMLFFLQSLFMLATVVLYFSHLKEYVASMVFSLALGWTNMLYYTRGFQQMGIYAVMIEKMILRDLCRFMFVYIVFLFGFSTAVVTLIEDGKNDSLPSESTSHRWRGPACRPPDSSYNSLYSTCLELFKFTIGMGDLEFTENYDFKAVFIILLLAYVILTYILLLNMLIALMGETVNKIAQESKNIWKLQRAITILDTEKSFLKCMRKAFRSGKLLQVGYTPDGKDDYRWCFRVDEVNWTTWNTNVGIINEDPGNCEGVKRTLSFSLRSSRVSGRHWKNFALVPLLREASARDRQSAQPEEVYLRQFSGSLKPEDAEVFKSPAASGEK
- Test description: Antagonist activity at human TRPV1 expressed in CHO cells assessed as inhibition of capsaicin-induced intracellular calcium level preincubated for 6 mins followed by capsaicin addition by Fluo-4 dye based FLIPR assay
- Format: cell-based
- Condition: cho
Measurement type: Ki

Molecule	Ki
CC(C(=O)NCc1cc(C(C)(C)C)nn1C)c1ccc(NS(C)(=O)=O)c(F)c1 (stereo unspecified)	Not Active
CC(C)(C)c1cc(CNC(=O)C(c2cccc(F)c2)c2ccc(NS(C)(=O)=O)c(F)c2)n(-c2cccc(Cl)c2)n1 (stereo unspecified)	Not Active
CC(C)(C)c1cc(CNC(=O)C(c2ccc(NS(C)(=O)=O)c(F)c2)C2CCCCC2)n(-c2cccc(Cl)c2)n1 (stereo unspecified)	Not Active
CC(C(=O)NCc1cc(C(C)(C)C)n[nH]1)c1ccc(NS(C)(=O)=O)c(F)c1 (stereo unspecified)	Not Active
Cc1ccc(C(C(=O)NCc2cc(C(C)(C)C)nn2-c2cccc(Cl)c2)c2ccc(NS(C)(=O)=O)c(F)c2)cc1 (stereo unspecified)	Not Active

// next item, Ki requested
Qu. Give the value of Ki reported for the following: COc1ccc(-n2nc(C(C)(C)C)cc2CNC(=O)C(C)c2ccc(NS(C)(=O)=O)c(F)c2)cc1 (stereo unspecified)
Ans. Not Active
